- Tested on: COLO 205 colon
- Test Description: NCI tumour cell line growth inhibition, 48 h; in the data active = GI50 below about 0.43 µM; inactive = the rest
Respond with a class label; see 1 = active, -1 = inactive

Before answering, review these 5 worked examples.
O=C(NNc1nc2cc(F)ccc2n2c(CN3CCOCC3)ccc12)c1ccccc1    1
Cc1ccc(S(=O)(=O)N(C)C)cc1[N+](=O)[O-]    -1
COCCNCC(O)Cn1c2ccc(Cl)cc2c2cc(Cl)ccc21 (stereo not drawn)    -1
COc1ccc(C2C3=C(NC(=O)C2C#N)c2ccc4ccccc4c2OCC3)cc1 (stereo not drawn)    -1
Brc1c[n+](Cc2ccc3ccccc3c2)cn1Cc1ccc2ccccc2c1    -1

Req: Record request — test call for "C[C@]12CC[C@H](O)CC1=CC[C@@H]1[C@@H]2CC[C@]2(C)C(=O)/C(=C/c3cccc(OCCCn4ccnc4)c3)C[C@@H]12"
Resp: -1

Req: Record lookup: outcome of this test for "O=C1Nc2ccc(Cl)cc2/C1=C\c1c(-c2ccc(F)cc2)nc2ccccn12" ?
Resp: -1

Req: Short answer needed: outcome of this test for "O=C(c1ccccc1)c1ccc(-c2ccc(O)cc2)cc1" ?
Resp: -1

Req: Check the results log: what was the call for "COc1cc2c(-c3nc4cc(Cl)c(F)cc4s3)cc(=O)oc2c(C)c1OC" ?
Resp: -1

Req: Identify the outcome logged in this assay for the compound shown: "COc1ccc(/C=C2/CN(C(=O)c3ccccc3F)C/C(=C\c3ccc(OC)cc3)C2=O)cc1"
Resp: -1
